- System: HepG2
- procedure-text: cytotoxicity call (relative viability < 0.9)
- condition-parameters: 10 µM
Hit rate of the full screen: of about 39,000 compounds, about 3,300 (8.5%) were called active. Only a selection was taken, and actives are over-represented in it overall.

- compound: "C[C@H](CO)N1C[C@H](C)[C@@H](CN(C)S(=O)(=O)c2cccs2)Oc2ccc(NS(=O)(=O)c3cccs3)cc2CC1=O"
  cytotoxicity call: "active"
- compound: "CC(C)OC(=O)c1cn(Cc2c(F)cccc2F)c2sc(-c3ccc(NC(=O)C(C)C)cc3)c(CN(C)Cc3ccccc3)c2c1=O"
  cytotoxicity call: "active"
- compound: "C[C@H](CO)N1C[C@H](C)[C@@H](CN(C)S(=O)(=O)c2cccs2)Oc2ccc(NS(=O)(=O)c3cccs3)cc2C1=O"
  cytotoxicity call: "inactive"
- compound: "CONC(=O)Nc1ccc(-c2sc3c(c2CN(C)Cc2ccccc2)c(=O)n(-c2ccccc2)c(=O)n3Cc2c(F)cccc2F)cc1"
  cytotoxicity call: "inactive"
- compound: "Cc1ccc(S(=O)(=O)N2C[C@H](O)COC[C@@H]3O[C@@H](CC(=O)N[C@@H]4CCN(Cc5ccccc5)C4)CC[C@H]32)cc1"
  cytotoxicity call: "inactive"
- compound: "C[C@@H]1CN([C@@H](C)CO)C(=O)c2cc(NS(=O)(=O)c3ccc(F)cc3)ccc2O[C@@H](C)CCCCO[C@@H]1CN(C)CC1CCCCC1"
  cytotoxicity call: "inactive"
- compound: "COc1ccc(-c2cnc3c(c2)C(=O)N([C@H](C)CO)C[C@@H](C)[C@H](CN(C)C(=O)C2CCOCC2)O3)cc1"
  cytotoxicity call: "inactive"
- compound: "C[C@H]1CCCCO[C@H](CN(C)CC2CCCCC2)[C@@H](C)CN([C@@H](C)CO)C(=O)c2cc(NS(=O)(=O)c3ccc(F)cc3)ccc2O1"
  cytotoxicity call: "active"
- compound: "CCCCCCCCCCCCCCCCOc1nc2ccc(C)cc2c(=O)o1"
  cytotoxicity call: "inactive"
- compound: "CO[C@@H](CN(C)C(=O)C1CCOCC1)[C@@H](C)CN(C(=O)Nc1ccc(C(F)(F)F)cc1)[C@@H](C)CO"
  cytotoxicity call: "inactive"
- compound: "COc1cc(OC)c2c(c1Cl)OC1(C2=O)C(O)=CC(=O)CC1C (centres undefined)"
  cytotoxicity call: "inactive"
- compound: "C[C@H](CO)N1C[C@H](C)[C@H](CN(C)C(=O)Nc2ccccc2)Oc2ccc(NS(=O)(=O)c3cn(C)cn3)cc2C1=O"
  cytotoxicity call: "active"
- compound: "C[C@@H]1CCCCO[C@@H](CN(C)CC2CCCCC2)[C@@H](C)CN([C@H](C)CO)C(=O)c2cc(NS(=O)(=O)c3ccc(F)cc3)ccc2O1"
  cytotoxicity call: "active"
- compound: "COc1ccc(S(=O)(=O)N(C)C[C@@H]2Oc3ccc(NS(=O)(=O)c4cccs4)cc3C(=O)N([C@H](C)CO)C[C@@H]2C)cc1"
  cytotoxicity call: "active"
- compound: "C[C@@H]1CCCCO[C@@H](CN(C)CC2CCCCC2)[C@H](C)CN([C@@H](C)CO)C(=O)c2cc(NS(=O)(=O)c3ccc(F)cc3)ccc2O1"
  cytotoxicity call: "active"
- compound: "O=C1Nc2ccc(I)cc2C1=Cc1cc(Br)c(O)c(Br)c1"
  cytotoxicity call: "active"
- compound: "COc1ccc2c(c1)C(=O)C(=O)N2"
  cytotoxicity call: "inactive"
- compound: "O=C(C[C@H]1C[C@@H]2c3cc(NC(=O)Nc4ccc(C(F)(F)F)cc4)ccc3O[C@@H]2[C@@H](CO)O1)NC1CCCCC1"
  cytotoxicity call: "inactive"
- compound: "C[C@@H]1CCCCO[C@@H](CN(C)CC2CCCCC2)[C@@H](C)CN([C@@H](C)CO)C(=O)c2cc(NS(=O)(=O)c3ccc(F)cc3)ccc2O1"
  cytotoxicity call: "inactive"
- compound: "C[C@@H]1CCCCO[C@@H](CN(C)CC2CCCCC2)[C@H](C)CN([C@H](C)CO)C(=O)c2cc(NS(=O)(=O)c3ccc(F)cc3)ccc2O1"
  cytotoxicity call: "inactive"
- compound: "Cc1ccc(S(=O)(=O)Nc2ccc3c(c2)C(=O)N([C@@H](C)CO)C[C@@H](C)[C@@H](CN(C)C(=O)Nc2ccc4c(c2)OCO4)OCCCC[C@H](C)O3)cc1"
  cytotoxicity call: "inactive"
- compound: "C[C@H]1CN([C@@H](C)CO)C(=O)c2cc(NS(=O)(=O)c3cccs3)ccc2O[C@H]1CN(C)S(=O)(=O)c1cccs1"
  cytotoxicity call: "inactive"
- compound: "Cc1noc(C)c1NC(=O)Nc1ccc2c(c1)C(=O)N([C@H](C)CO)C[C@H](C)[C@H](CN(C)Cc1ccc(C(=O)O)cc1)OCCCC[C@@H](C)O2"
  cytotoxicity call: "inactive"
- compound: "C[C@@H]1CN([C@@H](C)CO)C(=O)c2cc(NS(=O)(=O)c3cn(C)cn3)ccc2O[C@@H]1CN(C)C(=O)Nc1ccccc1"
  cytotoxicity call: "inactive"
- compound: "C[C@H](CO)N1C[C@H](C)[C@H](CN(C)CC2CCCCC2)OCCCC[C@H](C)Oc2ccc(NS(=O)(=O)c3ccc(F)cc3)cc2C1=O"
  cytotoxicity call: "active"
- compound: "O=C(O)CC1CCOCC1"
  cytotoxicity call: "inactive"
- compound: "C[C@@H]1CN([C@H](C)CO)C(=O)Cc2cc(NS(=O)(=O)c3cccs3)ccc2O[C@@H]1CN(C)S(=O)(=O)c1cccs1"
  cytotoxicity call: "inactive"
- compound: "C[C@@H]1CN([C@H](C)CO)C(=O)c2cc(NS(=O)(=O)c3cccs3)ccc2O[C@H]1CN(C)S(=O)(=O)c1cccs1"
  cytotoxicity call: "active"
- compound: "C[C@H](CO)N1C[C@H](C)[C@@H](CN(C)Cc2ccc(C(=O)Nc3ccccc3N)cc2)Oc2c(NC(=O)Nc3ccccc3)cccc2C1=O"
  cytotoxicity call: "inactive"

----------
- System: HepG2
- procedure-text: cytotoxicity call (relative viability < 0.9)
- condition-parameters: 10 µM
Hit rate of the full screen: of about 39,000 compounds, about 3,300 (8.5%) were called active. Many of the other results were omitted from the sample, so actives are more common in it than they were.
Possible outcomes: active, inactive

- smiles-representation: "C[C@@H]1CCCCO[C@H](CN(C)S(=O)(=O)c2ccc(F)cc2)[C@H](C)CN([C@@H](C)CO)C(=O)c2cc(NC(=O)NC3CCCCC3)ccc2O1"
  label-class: "inactive"
- smiles-representation: "O=C(C[C@@H]1C/C=C/C[C@H](Cc2ccccc2)C(=O)N[C@H](c2ccccc2)COC1=O)NCc1ccc(Cl)cc1"
  label-class: "active"
- smiles-representation: "CNC[C@H]1OCCCC[C@@H](C)Oc2ccc(NC(=O)Nc3ccc(C(F)(F)F)cc3)cc2C(=O)N([C@H](C)CO)C[C@H]1C"
  label-class: "inactive"
- smiles-representation: "C[C@@H]1CN([C@@H](C)CO)S(=O)(=O)c2ccc(-c3ccc(C(=O)N(C)C)cc3)cc2O[C@H]1CN(C)C(=O)C1CCOCC1"
  label-class: "inactive"
- smiles-representation: "CCC(=O)Nc1ccc2c(c1)OC[C@@H](C)N(C(=O)CN1CCOCC1)C[C@@H](C)[C@H](OC)CN(C)C2=O"
  label-class: "inactive"
- smiles-representation: "COc1ccccc1S(=O)(=O)N[C@H]1C=C[C@H](CC(=O)N2CCOCC2)O[C@@H]1CO"
  label-class: "inactive"
- smiles-representation: "Cc1noc(C)c1NC(=O)Nc1cccc2c1O[C@H](CN(C)C(=O)Nc1ccc(C(F)(F)F)cc1)[C@@H](C)CN([C@@H](C)CO)C2=O"
  label-class: "inactive"

----------
- Test system: HepG2
- procedure-text: cytotoxicity call (relative viability < 0.9)
- condition-parameters: 10 µM
About 3,300 (8.5%) of roughly 39,000 compounds were called active. The sample holds actives, similar compounds and a random draw of the others, so the mix is not that of the screen.
Possible outcomes: 1.0 (active), 0.0 (inactive)

- smiles-representation: "C#CCN1[C@H](/C=C/C2CC2)[C@H](Cc2ccccc2)OC(=O)[C@@H]1Cc1ccc(-n2cc(COc3ccccc3/C=C(C)/C=C/C(=O)NO)nn2)cc1"
  target-under-test: "HepG2"
  label-class: 1.0
- smiles-representation: "COC(=O)[C@@H](NC(=O)Cn1cc(COc2ccccc2/C=C(C)/C=C/C(=O)NO)nn1)c1ccccc1"
  target-under-test: "HepG2"
  label-class: 1.0
- smiles-representation: "COC(=O)[C@@H](Cc1ccc(-n2cc(COc3ccccc3/C=C(C)/C=C/C(=O)NO)nn2)cc1)N1CC2=CCCC=C[C@@H]2[C@H]1[C@H](O)Cc1ccccc1"
  target-under-test: "HepG2"
  label-class: 1.0
- smiles-representation: "C[C@@H]1CN([C@H](C)CO)C(=O)CCCn2nncc2CO[C@@H]1CN(C)S(=O)(=O)c1ccc(-c2ccccc2)cc1"
  target-under-test: "HepG2"
  label-class: 0.0
- smiles-representation: "COc1ccc(S(=O)(=O)N(C)C[C@@H]2Oc3c(NC(=O)c4ccncc4)cccc3C(=O)N([C@@H](C)CO)C[C@H]2C)cc1"
  target-under-test: "HepG2"
  label-class: 0.0
- smiles-representation: "COC(=O)[C@H](Cc1ccccc1)N1CC2=C[C@@H](C3CC3)n3c(=O)n(C)c(=O)n3[C@H]2[C@@H]1[C@@H](O)CCn1cc(COc2ccccc2/C=C(C)/C=C/C(=O)NO)nn1"
  target-under-test: "HepG2"
  label-class: 0.0
- smiles-representation: "CC(/C=C/C(=O)NO)=C\\c1ccccc1OCc1cn(-c2ccc(C[C@H]3C(=O)O[C@@H](Cc4ccccc4)[C@H]4[C@@H]5C=CCCC=C5CN43)cc2)nn1"
  target-under-test: "HepG2"
  label-class: 0.0
- smiles-representation: "COc1ccc(S(=O)(=O)Nc2ccc3c(c2)C(=O)N([C@H](C)CO)C[C@H](C)[C@H](CN(C)C(=O)CCC(F)(F)F)OCCCC[C@@H](C)O3)cc1"
  target-under-test: "HepG2"
  label-class: 0.0
- smiles-representation: "COc1ccc(NC(=O)N(C)C[C@H]2Oc3ccc(NC(=O)Cn4cnnn4)cc3CC(=O)N([C@@H](C)CO)C[C@@H]2C)cc1"
  target-under-test: "HepG2"
  label-class: 0.0
- smiles-representation: "C[C@H]1CN([C@@H](C)CO)C(=O)c2cccc(NC(=O)c3cnccn3)c2O[C@@H]1CN(C)S(=O)(=O)c1ccc(Cl)cc1"
  target-under-test: "HepG2"
  label-class: 0.0
- smiles-representation: "C[C@@H]1CN([C@H](C)CO)C(=O)Cc2cc(NC(=O)Nc3cccc4ccccc34)ccc2O[C@H]1CN(C)C(=O)Nc1cccc2ccccc12"
  target-under-test: "HepG2"
  label-class: 0.0
- smiles-representation: "CCOC(=O)[C@H](Cc1ccccc1)NC(=O)Cn1cc(C(=O)NO)nn1"
  target-under-test: "HepG2"
  label-class: 0.0
- smiles-representation: "CCNC(=O)C[C@H]1CC[C@H](NC(=O)C2CC2)[C@H](CO)O1"
  target-under-test: "HepG2"
  label-class: 0.0
- smiles-representation: "CC(/C=C/C(=O)NO)=C\\c1ccccc1OCc1cn(CC(=O)N2CCN(c3ccccc3)CC2)nn1"
  target-under-test: "HepG2"
  label-class: 0.0
